meta.source: the domain aggregation screens of Martell et al. (2025)

Assay: soluble fraction after stress (log2 fold change); higher = more stays soluble; pooled small domains, quantitative proteomics;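 also: 20 min heating vs room temperature control held 20 min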
Details: stress: 75 degC
Kindly supply the reported soluble fraction (log2) values for the records listed here.
Give bare numbers.

Solved cases below.
{"sequence data": "HMTGIQDVPALETRRVGNTFFFDRATDVQVYDLQGRLLQQARKVTSVSIGHLQQGVYVLTDGRASVKVQ", "property": "soluble fraction (log2)", "reading": -1.51}
{"sequence data": "HMEQNHYEVLGVSRDAIPEEIRKAYFEYARKLHPDANPDPGAAEQFMRIQTAYDVLSNPDRRHEYDGLLPP", "property": "soluble fraction (log2)", "reading": 0.00418}
{"sequence data": "HMSRGTLFVDVRGAVAKPGVYELPEKSRVFQAVEAAGGLLPEALERLVNQAAELTDGQQVYIPFEGEE", "property": "soluble fraction (log2)", "reading": 0.405}
{"sequence data": "HMVAREAYTTQNLTDVFSISRQAVEKRAKREGWQSVPRKGRGGGKLWVVSSMPAETRDLLASLLLRK", "property": "soluble fraction (log2)", "reading": -0.608}
{"sequence data": "HMNTPALRQRTQDVPALLIHFAKYFATKGQTPISFAPDFLEALKDYPWPGNVRELRNLVESMVV", "property": "soluble fraction (log2)", "reading": -0.133}
{"sequence data": "HMSEHKFIVPEEFNLKRLDQTVAAQFEKISRTKISKIIKSSLLKVNDKVVTDQSIKIKQDDVITFTEIKDQ", "property": "soluble fraction (log2)", "reading": -0.421}
{"sequence data": "HMIQLKEHDVVRLRETIVENDEKIPAGTRGVVLSVYDGGRAFAVEVADDRAASAIITAFRDQLEVY", "property": "soluble fraction (log2)", "reading": -0.467}
{"sequence data": "HMPLLSPRQLDVLSLAAGGLSDAQIAGRLVLSESTVRVHFHHIIEKLGVTDRAGAIAWYEQSRS", "property": "soluble fraction (log2)", "reading": -2.05}

I would be grateful if you could provide soluble fraction (log2) for each of the following entries.
1. HMEFDTEFVLRQAMHAFMQYGYAKTSMQKLKEATHLHPGSIYAAYGNKKGLFLAATEQYQKDR
2. HMAPEPFILSVDADGKYYIDDLEKTKQEILIYATALYQEKPTTDFLVRGDKSAAYNDVLQAMVVLKE
3. HMETYPINVETTGTNVLLRTGPSTSSNIIKTITDKGTVFLSIERGINSDWQKVVTPDGTIGYMSGKY
4. HMRSFRIGGLVEQGSIARDGQSLTVRFAVTDLAHKIPVTYTGLLPDLFKEGKGVVAEGKLGPDGVFHASQV

Completion:
1. 0.288
2. 0.325
3. 0.00405
4. -0.0831

---

Assay: soluble fraction after stress (log2 fold change); higher = more stays soluble; pooled small domains, quantitative proteomics
Conditions: stress: 75 degC
property: soluble fraction (log2)

Below are worked cases with known answers.
{"sequence data": "HMIETIQVPRAFNDWHEQADKTKSVFEVYAEIEASENEKLIAWVRNNQNEFAKIWLGALIPELE", "reading": -1.7}
{"sequence data": "HMEEIIPIRFLRHRVKRRETIFGLTQKYNITEDQLKRYNTRLYSEALERKMVLQIPVFPEVDED", "reading": -2.29}
{"sequence data": "HMKSKYLIKIEGDFDEKDLYKYLINVSIVNHTKNNGFTEVEFYNDNYSLQQNFLKSMLNDGIIITEFKKVE", "reading": -0.49}
{"sequence data": "HMSDSGLPLPRFVSLGDDRVNARAGPGFRFPINWVYLRKNFPVEVIDEFGHWRRIKDIDGIEGWIHLSML", "reading": -0.793}

Provide soluble fraction (log2) for all items below, preserving their order.
1. HMATSNDTQITGSLALRFDGSGDTFTVNVNGDDKLEINTEGTVIYKPLTTAPTYVSGGLFFSSSGDFYVG
2. HMEILTRQLTHYLHLLPPAQQEVVRGVYLQDQTLQEIADRVQIPLGTVKSRLRLGLSKLREQIEQEHE
3. HMKGIVFTEFLDLVEERFGLEMVDAIISQSKLESKGVYTSIGTYSFSELLQLLQNLKIQTGISIDNLLLI
4. HMSLSKQETEFLTTFSASGKRVFTYQQATDYWQSKVAATNVLGRLVRKGWLQRLERGLYMIIPLEAGPERF

Completion:
[0.00147, -1.36, -0.961, -1.71]

Items follow; give soluble fraction (log2) for each.
1. HMALDLPVKRVKGKEYYYYKVKKGESLYGISKHLGLPLDSIVKSNPSVADGVRKGDMLLFPLEEYT
2. HMTSGPAWPALSAQQRSVLAPLQRDWHTIDAARKAKWLEVAARFPSMPAEERQRVQERMAEWA
3. HMSDKNVYGKYKNVFLSDEEFSELKQFYPNDWSDRIETLSEGIELKGYKYKNYLLAIKKWAEYEGQKAD
4. HMASGLITEEQAKSKALAHAGLSASQVNFIWVKQDWEDGRRVYEVEFYTDDYQEYDYEIDARTGEILSFDY
5. HMANYHDIAADLRSKINHGFYEEEKKLPKQSELAADYQTSRVTIQKALNILQMEGIIYGKKGTGTFIRDSY
6. HMRRVEDVRTALEHFAAARNTTPMAMTLDQRREAMRELAASGLLNLRRALSEVAQTLGVARSTVYTYLP
7. HMSVTSIEGRVVYDENANKIGIAKQVGIDSTQSMVLVLTKNDGTEGSISWNNIKKIGEIILLGN
8. HMSAPLKELGNDPESGKPIVVKDGRFGAYVTDGETNATLRKTDAVESLTPERAAELLAEKRAKG

Completion:
-0.702
-0.0911
-0.47
-1.84
-0.32
-1.39
-0.908
0.493

Batch of 2 sequences: report soluble fraction (log2) for each.
1. HMDDVGERIRKIREEKNLSLDEISKMTGFDVEFLAKIENKERQPQLGTVIKLSKALDSAFGRL
2. HMDRLTISTLGNGLFRVNGAEAEATVYNLSGNVVKVVPADEVIDLSSLAKGVYIIHVDGEAFKVI

Completion:
1. 0.162
2. -1.13

Go through the list and state soluble fraction (log2) for each entry.
1. HMQYFDIETEIQKFIKSENNLSDFDKETLQSFLYQLSKGSPEENTAKKVVDILNKFLPLTTAIINMIKALT
2. HMRKTIQDFLSSNKVDIAKLLTLALEKTKEDLYKNLSYNLTNKELEKLKLLIKKREQGIPFAYLS
3. HMKSARQIAILEIIAEKSIETQEDLADALRLRGFQVTQATVSRDIKELRLVKALAPDGTYRYATAEK

Completion:
1. 0.0503
2. -0.348
3. -1.57

---

For each entry below, report its soluble fraction (log2) value.
Assay: soluble fraction after stress (log2 fold change); higher = more stays soluble; pooled small domains, quantitative proteomics
Details: stress: 75 degC
One number for each entry.

{"sequence data": "HMENAEALLKKLSGVLSDYEYKMLMLYADGKTPRRIAQETGQSAKSVSNALFRARTKLKELYEDQ", "soluble fraction (log2)": -0.66}
{"sequence data": "HMQSVKTQPLRDWLLAHFDKPYPDDEDKVRLAEASGMTRAQVGNWFINARVRTWRPMVLDLGEEIERESV", "soluble fraction (log2)": -0.325}
{"sequence data": "HMKLHQDLQIKVIDAANNKVEFIDTATGTSLATRTLDVNGVSKARGFEATLYGVVEDNDVFHIA", "soluble fraction (log2)": 0.121}
{"sequence data": "HMGNFNDMLKYLRVREKMSQAELADKLGVSKSTVGMYELGKREPDFETLEAIADLFNVDMNFLLGK", "soluble fraction (log2)": -0.423}
{"sequence data": "HMAHPRTHEALNPLWEKYLGPNAGNDFFLSGGTSLKALMFLKDLEKTLNKRIAIHAFFKDPTYEHVVSD", "soluble fraction (log2)": -0.84}
{"sequence data": "HMGVGVKSTEVDYQRTSSGSDIPTDDAAWTKTIPAVKVNTFLWTRTKINYTDGTSAIFYSVGY", "soluble fraction (log2)": -3.05}
{"sequence data": "HMVIVMRKDADAASIEKVVSEVKSRGFMPHVSEGESRTLIGAIGPAPTEELREHFAGLAGVETVVRITK", "soluble fraction (log2)": -0.533}
{"sequence data": "HMTLAAATESREYLADLARRLDAADHGDKTRIKAEAAGLLGWSMATLHARLARDVGWTSGRK", "soluble fraction (log2)": -0.241}

Count: 2. Required value per item: soluble fraction (log2).
1. HMIKIDESTLSEDELKIFEILKIEDKNIENIAIESKILPGKLLATLMNMEMKKIVVQYPGKVFGLNRKLK
2. HMKTEVNITPGIIDWIERYVQTDKISSSMTEDFQHWKSGTKKPTFNQVEAFSKAINVPLGYFFLKTPPAE

Completion:
1. -1.81
2. -0.725
